# Test system: ACHN renal
# Test Name: NCI tumour cell line growth inhibition, 48 h
Consider the following molecules; for each one, report its TGI.

Query :: Please give the documented TGI of CCC(C)CN=C(N)c1ccc(N2CCN(c3ccc(C(N)=NCC(C)CC)cc3)CC2)cc1 (configuration not stated)
Result :: > 100 µM

Query :: Please give the documented TGI of `c1ccc(P2c3ccccc3Nc3ccccc32)cc1`
Result :: > 100 µM

Query :: Please give the documented TGI of `CCN(CC)c1c(C(=O)/C=C/c2ccc(F)cc2)c(-c2ccccc2)nn(C)c1=O`
Result :: 20.6 µM

Query :: Please give the documented TGI of `O=C(Nc1ccccc1C(=O)N/N=C(\c1ccccc1)c1ccccn1)c1ccccc1`
Result :: > 100 µM

Query :: Please give the documented TGI of CCCCCCCCCCCCCCCC(=O)Nc1ccn(C2CC(OP(=O)(O)OCC3OC(n4cc(F)c(=O)[nH]c4=O)CC3OC(C)=O)C(CO)O2)c(=O)n1 (configuration not stated)
Result :: 3.54 µM

Query :: Please give the documented TGI of `O=C1/C(=C/c2ccc(Cl)cc2)N=C(c2ccccc2)N1c1nc2ccc(Sc3ccccc3)cc2[nH]1`
Result :: > 100 µM

Query :: Please give the documented TGI of `Cc1ccc(C(=O)N/N=C(\N=Nc2cccc(C)c2)c2ccc(N(CCC#N)CCC#N)cc2C)cc1`
Result :: > 100 µM

Query :: Please give the documented TGI of Oc1ccc2c(c1)OCC1(O)Cc3cc(O)c(O)cc3C21 (configuration not stated)
Result :: 32.7 µM

Query :: Please give the documented TGI of `CC(C)(C)OC(=O)N(CCCN)CCCCN`
Result :: > 100 µM

Query :: Please give the documented TGI of `COc1ccc(NC(=S)N/N=C(\c2ccccc2)c2ccccn2)cc1`
Result :: 10.5 µM

Query :: Please give the documented TGI of `O=S(=O)(Nc1cc(F)cc(F)c1)c1ccc(-c2cnc(C3CC3)o2)cc1`
Result :: > 100 µM

Query :: Please give the documented TGI of `O=C1c2ccccc2CC12CCC1(CC2)OCCO1`
Result :: > 100 µM

Query :: Please give the documented TGI of `COc1ccc2nc3c(n2c1)C(=O)C(=O)c1ccccc1-3`
Result :: 2.77 µM

Query :: Please give the documented TGI of `CCOC(=O)c1cc(C(=O)c2cc(OC)c(OC)c(OC)c2)n2nc(C)ccc12`
Result :: > 100 µM

Query :: Please give the documented TGI of CS(=O)(=O)Nc1ccc2c(c1)N(S(C)(=O)=O)CC2COS(C)(=O)=O (configuration not stated)
Result :: > 100 µM

Query :: Please give the documented TGI of `CN(C)N=Nc1cn[nH]c1C(N)=O`
Result :: > 100 µM

Query :: Please give the documented TGI of CCOC(=O)/C=C/C1OC(C)(C)OC1/C=C/C(=O)OCC (configuration not stated)
Result :: > 100 µM

Query :: Please give the documented TGI of `COc1ccc2c(c1OC)OC[C@@H](C1=CC(=O)C=C(O)C1=O)C2`
Result :: 11.3 µM

Query :: Please give the documented TGI of `CN(C)C(=S)/N=c1\ssc(=Nc2ccccc2)n1C`
Result :: > 100 µM

Query :: Please give the documented TGI of `CC[N-]c1nnnn1CC.[Au+].c1ccc([PH+](c2ccccc2)c2ccccc2)cc1`
Result :: 3.02 µM

Query :: Please give the documented TGI of O=C(Nc1ccccc1SC(/C=C/NNC1=NC(c2ccccc2)C(c2ccccc2)=NN1)c1ccccc1)c1ccc(Cl)cc1Cl (configuration not stated)
Result :: > 100 µM

Query :: Please give the documented TGI of `CCOc1ccccc1C(=O)/C=C/c1cc2ccccc2[nH]c1=O`
Result :: 1.73 µM

====

Consider the following compounds; for each one, report its TGI.
# Tested on: NCI-H226 lung
# Test Name: NCI tumour cell line growth inhibition, 48 h

Query :: Please give the documented TGI of `COc1ccc(CNc2nc3ccccc3nc2C(=O)O)cc1OC`
Result :: > 100 µM

Query :: Please give the documented TGI of `O=C1c2ccccc2CC12CCC1(CC2)OCCO1`
Result :: > 100 µM

Query :: Please give the documented TGI of CC(=O)Nc1ccc(C(=O)NN2C(=O)C(Cl)C2c2cc(Br)cc(Br)c2O)cc1 (stereo unspecified)
Result :: > 100 µM

Query :: Please give the documented TGI of `O=C1c2ccccc2C(=O)c2nc3c(O)cccc3cc21`
Result :: > 100 µM

Query :: Please give the documented TGI of `CN(C)c1nc2n(CCO)ccnc-2c(=O)n1`
Result :: > 100 µM

Query :: Please give the documented TGI of CC1=CC(C)C(C)N(CC2=NCCN2)c2ccccc21 (stereo unspecified)
Result :: > 100 µM

Query :: Please give the documented TGI of `O=S(=O)(Nc1cc(F)cc(F)c1)c1ccc(-c2cnc(C3CC3)o2)cc1`
Result :: 53 µM

Query :: Please give the documented TGI of `COc1ccc2c(c1OC)OC[C@@H](C1=CC(=O)C=C(O)C1=O)C2`
Result :: 46.7 µM

Query :: Please give the documented TGI of `CCN(CC)C(=S)SS(=O)(=O)c1ccc(N)cc1`
Result :: > 100 µM

Query :: Please give the documented TGI of `Cn1cc(NC(=O)c2cc(NC(=O)CCCCCCCCCC(=O)Nc3cc(C(=O)Nc4cc(C(=O)NCCC(=N)N)n(C)c4)n(C)c3)cn2C)cc1C(=O)NCCC(=N)N`
Result :: > 100 µM

Query :: Please give the documented TGI of CN1CCC(CN2c3ccccc3Sc3ccccc32)C1 (stereo unspecified)
Result :: 35 µM

====

# Tested on: M14 melanoma
# Test Name: NCI tumour cell line growth inhibition, 48 h
Consider the following compounds; for each one, report its TGI.

Query :: Give TGI; test system M14 melanoma; compound O=C1C=CC2(NN=C(c3ccccc3)N2c2ccccc2)c2cccc(O)c21 (configuration not stated)
Result :: 2.6 µM

Query :: Give TGI; test system M14 melanoma; compound COc1ccc(C(O)c2cc3c(N)c(C(=O)Nc4ccccc4)sc3nc2C)cc1 (configuration not stated)
Result :: > 100 µM

Query :: Give TGI; test system M14 melanoma; compound `Cn1cc(-c2csc(-c3c[nH]c4ccccc34)n2)c2cccnc21`
Result :: > 100 µM

Query :: Give TGI; test system M14 melanoma; compound `CN/N=C(/C=C/c1ccccc1)C(C)C`
Result :: > 100 µM

Query :: Give TGI; test system M14 melanoma; compound CCOC(=O)CC1C(O)C(=O)N(C)C1c1ccccc1 (configuration not stated)
Result :: > 100 µM

Query :: Give TGI; test system M14 melanoma; compound `c1ccc(N=C(N2CCCCC2)N(CCN2CCCCC2)c2ccccc2)cc1`
Result :: 16.1 µM

Query :: Give TGI; test system M14 melanoma; compound `CCNCCNc1cc(-c2ccc(Cl)c(Cl)c2)c(C#N)c2nc3ccccc3n12`
Result :: 3.24 µM

Query :: Give TGI; test system M14 melanoma; compound COC(=O)[C@]1(C)CCC[C@]2(C)C3CC4OOC3(C=C4C(C)(C)O)CCC21 (some centres not stated)
Result :: > 100 µM

Query :: Give TGI; test system M14 melanoma; compound `CN1CCN(Cc2nc3cccc4c3c([n+]2[O-])-c2ccccc2-4)CC1`
Result :: > 61.1 µM

Query :: Give TGI; test system M14 melanoma; compound `NC1(P(=O)(O)O)CCCCC1`
Result :: > 100 µM

Query :: Give TGI; test system M14 melanoma; compound CCOC(=O)/C=C/C1OC(C)(C)OC1/C=C/C(=O)OCC (configuration not stated)
Result :: > 100 µM

Query :: Give TGI; test system M14 melanoma; compound COc1cc2c(cc1OCCCCCN1CCN(CCCCCOc3cc4c(cc3OC)C(=O)C3CCC[C@H]3C=N4)CC1)N=C[C@@H]1CCCC1C2=O (some centres not stated)
Result :: 80.9 µM

Query :: Give TGI; test system M14 melanoma; compound `O=Cc1cn(Cc2ccccc2)c2ccccc12`
Result :: > 100 µM

Query :: Give TGI; test system M14 melanoma; compound CCCCCCCCCCCCC(CC)CCCCC(=O)O (configuration not stated)
Result :: > 100 µM

Query :: Give TGI; test system M14 melanoma; compound `COc1ccc(NC(=S)N/N=C(\c2ccccc2)c2ccccn2)cc1`
Result :: 2.61 µM

Query :: Give TGI; test system M14 melanoma; compound `COc1ccc(CCc2nc3cc(-c4c(C)noc4C)ccc3n2CCN2CCOCC2)cc1`
Result :: > 100 µM

Query :: Give TGI; test system M14 melanoma; compound `CCN(CC)c1c(C(=O)/C=C/c2ccc(F)cc2)c(-c2ccccc2)nn(C)c1=O`
Result :: 25.6 µM

Query :: Give TGI; test system M14 melanoma; compound `Cc1cc(O)c(C=NC(=S)c2ccncc2)c(=O)o1`
Result :: > 100 µM

Query :: Give TGI; test system M14 melanoma; compound `COc1cc2c3c(n(CCCN)c(=O)c2cc1OC)-c1ccc(N(C)C)cc1C3=O`
Result :: 32.6 µM

Query :: Give TGI; test system M14 melanoma; compound `CCCCCCCCCCCCCCCC(=O)Nc1ccn([C@@H]2O[C@H](CO)[C@@H](O)[C@@H]2C#N)c(=O)n1`
Result :: > 83.6 µM

Query :: Give TGI; test system M14 melanoma; compound `CO/C(=N\N=C\c1ccccc1F)c1ccncc1`
Result :: > 10 µM

Query :: Give TGI; test system M14 melanoma; compound `O=C(NCCn1ccnn1)Nc1ccccc1`
Result :: > 100 µM
